Molecular target: recombinant soluble homotrimeric HA of A/Wisconsin/67/05 (H3N2) (Influenza A virus A/Wisconsin/67/2005(H3N2))
Experiment: trimeric HA microarray, transfection supernatant set 3
Details: remark: other sources report otherwise
reported.endpoint: Trimeric HA Binding: RLU (RLU)
Give the quantity in RLU, number only.

| binder | numeric.result |
| --- | --- |
| TCN-530 (5248_H10a) (antibody, V domains shown) VH: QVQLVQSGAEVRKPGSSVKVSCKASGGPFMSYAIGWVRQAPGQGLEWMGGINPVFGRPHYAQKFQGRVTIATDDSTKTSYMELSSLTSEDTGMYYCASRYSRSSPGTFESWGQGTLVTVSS VL: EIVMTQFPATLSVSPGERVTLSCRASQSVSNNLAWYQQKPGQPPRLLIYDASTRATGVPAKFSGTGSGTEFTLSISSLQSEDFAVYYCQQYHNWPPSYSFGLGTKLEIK | 3050 |

[Q] Report Trimeric HA Binding: RLU for TCN-531 (5091_H13) (antibody, V domains shown) VH: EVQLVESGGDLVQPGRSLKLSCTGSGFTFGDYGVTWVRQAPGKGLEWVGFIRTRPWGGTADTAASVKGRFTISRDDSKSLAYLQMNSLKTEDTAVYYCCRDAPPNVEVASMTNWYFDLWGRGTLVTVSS VL: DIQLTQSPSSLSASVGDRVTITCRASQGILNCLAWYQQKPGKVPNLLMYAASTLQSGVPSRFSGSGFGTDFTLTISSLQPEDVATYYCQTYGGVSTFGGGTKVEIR please.
[A] 4160
